Recorded peptide microarray binding signal by entry
- tgt: anti-H3K9me3 antibody ab8898
- assay method text: peptide microarray binding signal (635 nm), min-max normalized on array (fraction of array maximum); higher = stronger binding
- measurement setup: peptide region: Unmod H1 variant; binder concentration: 1:2,000 dilution
The reply should be a number, written without any unit.

1. SFRLAKSDEPKKS [Unmod H1 variant S F R L A K S D E P K K S]; 0.000785
2. KPKAAKARVTKPK [Unmod H1 variant K P K A A K A R V T K P K]; 0.000166
3. SHYKVGENADSQI [Unmod H1 variant S H Y K V G E N A D S Q I]; 0.000181
4. KAAAASKKKPAGP [Unmod H1 variant K A A A A S K K K P A G P]; 0.000181
5. KAKKAGAAKAKKP [Unmod H1 variant K A K K A G A A K A K K P]; 0.000423

Exercise: Output measured peptide microarray binding signal for this item: SKKSVKTPKKAKK [Unmod H1 variant S K K S V K T P K K A K K]
Key: 0.000121

Exercise: Recall and state the measured peptide microarray binding signal for AKKPAGAAKKPKK [Unmod H1 variant A K K P A G A A K K P K K] .
Key: 0.000423

Exercise: Tell me measured peptide microarray binding signal for TPKKASKPKKAAS [Unmod H1 variant T P K K A S K P K K A A S] please.
Key: 0.000181

Exercise: Tell me its peptide microarray binding signal given TKKEIKKVATPKK [Unmod H1 variant T K K E I K K V A T P K K] as the entry.
Key: 0.000121

Exercise: Look up and state reported peptide microarray binding signal for PPVSELITKAVAA [Unmod H1 variant P P V S E L I T K A V A A]
Key: 0.00106

Exercise: Name the recorded peptide microarray binding signal of the binder listed here: ASGSFKLNKKAAS [Unmod H1 variant A S G S F K L N K K A A S]
Key: 0.000257

Exercise: Report peptide microarray binding signal for KKAKKPKTVKAKP [Unmod H1 variant K K A K K P K T V K A K P]
Key: 0.000151

Exercise: Check the records and state peptide microarray binding signal for KAASKAPTKKPKA [Unmod H1 variant K A A S K A P T K K P K A]
Key: 0.000257

Exercise: Could you please provide reported peptide microarray binding signal for KTAKPKKAAPKKK [Unmod H1 variant K T A K P K K A A P K K K] ? Thanks!
Key: 0.000121

Exercise: Return reported peptide microarray binding signal. Input binder: SETAPAAPAAPAP [Unmod H1 variant S E T A P A A P A A P A P]
Key: 0.00159

Exercise: Annotate the binder DSQIKLSIKRLVT [Unmod H1 variant D S Q I K L S I K R L V T] with its measured peptide microarray binding signal.
Key: 0.000513

Exercise: Find the measured peptide microarray binding signal of KKLKKATGASKKS [Unmod H1 variant K K L K K A T G A S K K S] and report it.
Key: 0.000257

Exercise: Identify peptide microarray binding signal associated with the binder ERGGVSLAALKKA [Unmod H1 variant E R G G V S L A A L K K A]
Key: 0.00225

Exercise: Item SKGTLVQTKGTGA [Unmod H1 variant S K G T L V Q T K G T G A] : provide peptide microarray binding signal
Key: 0.000211

Exercise: Supply recorded peptide microarray binding signal for AEKNRAGSSRQSI [Unmod H1 variant A E K N R A G S S R Q S I] here.
Key: 0.000544

Exercise: Supply peptide microarray binding signal value. Item: KKSTDHPKYSDMI [Unmod H1 variant K K S T D H P K Y S D M I]
Key: 0.000196

Exercise: # return recorded peptide microarray binding signal for entry SDMIVAAIQAEKN [Unmod H1 variant S D M I V A A I Q A E K N]
Key: 0.000559
